FYI, the data here is from patent US20210214375A1.

Target: MGLL (Mus musculus, UniProt O35678)
Sequence (O35678 1-303): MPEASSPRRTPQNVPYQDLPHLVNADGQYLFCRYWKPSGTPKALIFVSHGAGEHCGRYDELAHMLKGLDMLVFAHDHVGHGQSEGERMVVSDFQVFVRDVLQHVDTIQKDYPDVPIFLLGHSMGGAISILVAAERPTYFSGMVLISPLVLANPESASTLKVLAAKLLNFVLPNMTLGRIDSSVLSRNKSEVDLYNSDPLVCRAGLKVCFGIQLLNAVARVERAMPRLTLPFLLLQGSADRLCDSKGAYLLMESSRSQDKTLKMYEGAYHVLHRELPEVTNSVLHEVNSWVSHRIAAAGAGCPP
pIC50: −log10 of the molar value.
Here the recorded pIC50 is given for each entry.

Query :: // returns reported pIC50 for input O=C(OC(C(F)(F)F)C(F)(F)F)N1CCC2(CC1)CN(Cc1cccc(C(F)(F)F)c1)C2
Result :: > 7.00

New cases:
Query :: Given the compound O=C(OC(C(F)(F)F)C(F)(F)F)N1CCC2(CC1)CN(Cc1ccc(C(F)(F)F)cc1N1CCCC1)C2 , what is its reported pIC50?
Result :: > 7.00

Query :: For the compound CN1CCCC12CCN(c1cc(C(F)(F)F)ccc1CN1CCN(C(=O)OC(C(F)(F)F)C(F)(F)F)CC1)CC2 , what pIC50 is on record?
Result :: 6.00 to 7.00

Query :: Look up pIC50: O=C(O)CN1CCN(c2cc(C(F)(F)F)ccc2CN2CCCC23CCN(C(=O)OC(C(F)(F)F)C(F)(F)F)CC3)CC1
Result :: > 7.00

Query :: Fill blank: measured pIC50 of the compound CS(=O)(=O)N1CCC2(CCN(c3cccc(C(F)(F)F)c3CN3CC4(CCN(C(=O)OC(C(F)(F)F)C(F)(F)F)CC4)C3)CC2)C1 is ____.
Result :: > 7.00

Query :: Which pIC50 reading was recorded for the compound CC(=O)N1CCCC12CCN(c1cc(Cl)ccc1CN1CCN(C(=O)OC(C(F)(F)F)C(F)(F)F)CC1)CC2 ?
Result :: 6.00 to 7.00

Query :: I would be grateful if you could share the reported pIC50 for O=C(OC(C(F)(F)F)C(F)(F)F)N1CCC2(CC1)CN(Cc1c(N3CCC4(CCOCC4)C3)cccc1C(F)(F)F)C2 .
Result :: > 7.00
